tested on: P. falciparum stage V gametocytes; design: BacTiter-Glo ATP luminescence viability of purified stage V gametocytes in 384-well plates, per cent inhibition versus DMSO; conditions: 48 h, 5 µM; inhibitor
About 3,200 (25%) of roughly 13,000 compounds showed an effect of 50% or more. This is one part of the list.

[
  {
    "molecule": "COc1ccc2ncc(Cl)c(CCN3CCC(NCc4ccc5c(n4)NC(=O)CO5)CC3)c2c1",
    "% Inhibition": "-9.673%"
  },
  {
    "molecule": "O=C(Nc1ccc([N+](=O)[O-])cc1)Nc1nc2ccc(Cl)cc2s1",
    "% Inhibition": "38.6%"
  },
  {
    "molecule": "COc1ccc(CCNCCCCCCNCCCc2ccc(Cl)cc2)cc1OC",
    "% Inhibition": "105.1%"
  },
  {
    "molecule": "COc1ccc(CN(C)CCCc2ccc(NC(=O)Cc3ccc4nc(-c5ccccc5)ccc4c3)cc2)cc1OC",
    "% Inhibition": "17.3%"
  },
  {
    "molecule": "Cc1cc(N2CCCN(C)CC2)nc(Nc2ccc(Br)cc2)n1",
    "% Inhibition": "8.487%"
  }
]

* * *

Consider the following compounds and their measured % Inhibition readings.
system: P. falciparum stage V gametocytes; design: BacTiter-Glo ATP luminescence viability of purified stage V gametocytes in 384-well plates, per cent inhibition versus DMSO; conditions: 48 h, 5 µM; inhibitor
The campaign covered roughly 13,000 compounds. About 3,200 (25%) showed an effect of 50% or more. The list shows a part of the results.
endpointLabel: % Inhibition (%)

[
  {
    "compound": "Cc1ccc(-c2nc(Nc3ccncc3)c3ccccc3n2)s1 [TCMDC-134482]",
    "endpointLabel": "% Inhibition",
    "readingUnit": "%",
    "observedValue": 16.52
  },
  {
    "compound": "CCCCCCN1CCCN(Cc2ccc(C(=O)Nc3ccc(Cl)cc3)cc2)CC1 [TCMDC-136416]",
    "endpointLabel": "% Inhibition",
    "readingUnit": "%",
    "observedValue": 35.96
  },
  {
    "compound": "COc1ccc(NC(=O)[C@H](Cc2ccccc2)Nc2cc(C)nc(NCCc3ccccc3OC)n2)cc1 [TCMDC-134801]",
    "endpointLabel": "% Inhibition",
    "readingUnit": "%",
    "observedValue": 16.26
  },
  {
    "compound": "Cc1cccc(-c2nc(Nc3ccncc3)c3cc(N(C)C)ccc3n2)n1 [TCMDC-135308]",
    "endpointLabel": "% Inhibition",
    "readingUnit": "%",
    "observedValue": 101.1
  },
  {
    "compound": "COc1ccc(NC(=O)[C@H](Cc2ccccc2)Nc2cc(C)nc(NCCc3cccs3)n2)cc1 [TCMDC-134873]",
    "endpointLabel": "% Inhibition",
    "readingUnit": "%",
    "observedValue": 39.58
  },
  {
    "compound": "O=C(Nc1cccc(CN2CCN(Cc3ccc(O)cc3)CC2)c1)c1ccc(-c2ccccc2)cc1 [TCMDC-141886]",
    "endpointLabel": "% Inhibition",
    "readingUnit": "%",
    "observedValue": 12.46
  },
  {
    "compound": "Cc1cc(N[C@@H](Cc2ccccc2)C(=O)Nc2ccccc2)nc(NCCc2cccs2)n1 [TCMDC-134814]",
    "endpointLabel": "% Inhibition",
    "readingUnit": "%",
    "observedValue": 131.2
  },
  {
    "compound": "O=C(Nc1cccc(CN2CCCN(Cc3cccc(Cl)c3)CC2)c1)c1ccc(-c2ccccc2)cc1 [TCMDC-141837]",
    "endpointLabel": "% Inhibition",
    "readingUnit": "%",
    "observedValue": -76.33
  },
  {
    "compound": "CCCCCCN1CCCN(Cc2ccc(C(=O)Nc3ccc(C(C)C)cc3)cc2)CC1 [TCMDC-136423]",
    "endpointLabel": "% Inhibition",
    "readingUnit": "%",
    "observedValue": 90.22
  },
  {
    "compound": "COc1ccc2ncc(C#N)c(CCN3C4CCC3CC(NCc3ccc5c(n3)NC(=O)CS5)C4)c2c1 (stereo not shown) [TCMDC-135180]",
    "endpointLabel": "% Inhibition",
    "readingUnit": "%",
    "observedValue": 37.34
  },
  {
    "compound": "Cc1cc(N[C@@H](Cc2ccccc2)C(=O)NC2CCCC2)nc(NCCc2cccs2)n1 [TCMDC-134811]",
    "endpointLabel": "% Inhibition",
    "readingUnit": "%",
    "observedValue": 53.29
  },
  {
    "compound": "Cc1cc(N[C@@H](Cc2ccccc2)C(=O)NC2CCCC2)nc(NCc2ccccc2C)n1 [TCMDC-134902]",
    "endpointLabel": "% Inhibition",
    "readingUnit": "%",
    "observedValue": -12.74
  },
  {
    "compound": "COc1ccc(NC(=O)[C@H](Cc2ccccc2)Nc2cc(C)nc(NCc3ccccc3C)n2)cc1 [TCMDC-134904]",
    "endpointLabel": "% Inhibition",
    "readingUnit": "%",
    "observedValue": -26.59
  },
  {
    "compound": "COc1ccc(NC(=O)[C@H](Cc2ccccc2)Nc2cc(C)nc(NCCc3ccccc3)n2)cc1 [TCMDC-134774]",
    "endpointLabel": "% Inhibition",
    "readingUnit": "%",
    "observedValue": 119.9
  },
  {
    "compound": "CCCCCCN1CCCN(Cc2ccc(C(=O)Nc3ccc(CC)cc3)cc2)CC1 [TCMDC-136450]",
    "endpointLabel": "% Inhibition",
    "readingUnit": "%",
    "observedValue": 13.19
  },
  {
    "compound": "Cc1cc(N[C@@H](Cc2ccccc2)C(=O)NC2CCCC2)nc(NCCCOC(C)C)n1 [TCMDC-134821]",
    "endpointLabel": "% Inhibition",
    "readingUnit": "%",
    "observedValue": 40.66
  }
]

* * *

Consider the following compounds and their measured % Inhibition readings.
tested on: P. falciparum stage V gametocytes; set-up: BacTiter-Glo ATP luminescence viability of purified stage V gametocytes in 384-well plates, per cent inhibition versus DMSO; details: 48 h, 5 µM; inhibitor
The whole screen tested about 13,000 compounds, of which about 3,200 (25%) showed an effect of 50% or more. The list shows a part of the results.

[
  {
    "molecule": "Cc1cccc(CNc2nc(C)cc(N[C@@H](Cc3ccccc3)C(=O)NC3CCCC3)n2)c1",
    "target": "P. falciparum stage V gametocytes",
    "% Inhibition (%)": 14.7
  },
  {
    "molecule": "CN(Cc1ccc(NC(=O)NC2CCN(C(=O)/C=C/c3ccc(Cl)c(Cl)c3)CC2)cc1)C1CCOCC1",
    "target": "P. falciparum stage V gametocytes",
    "% Inhibition (%)": 15.53
  },
  {
    "molecule": "COc1ccc(NC(=O)/C=C/c2cc(Br)ccc2F)cc1OCCN(C(C)C)C(C)C",
    "target": "P. falciparum stage V gametocytes",
    "% Inhibition (%)": -43.25
  }
]

* * *

Consider the following compounds and their measured % Inhibition readings.
test system: P. falciparum stage V gametocytes; set-up: BacTiter-Glo ATP luminescence viability of purified stage V gametocytes in 384-well plates, per cent inhibition versus DMSO; conditions: 48 h, 5 µM; inhibitor
Out of some 13,000 compounds screened, about 3,200 (25%) showed an effect of 50% or more. The list shows a part of the results.

[
  {
    "compound": "O=C(Cc1cnc[nH]1)Nc1cccc(-c2ccc(-c3nc4ccccc4[nH]3)cc2)c1",
    "target": "P. falciparum stage V gametocytes",
    "% Inhibition": "6.174%"
  },
  {
    "compound": "Cc1ccc(C(C#N)c2ccc3c(C(F)(F)F)cc(C(F)(F)F)nc3n2)cc1 (stereo not shown)",
    "target": "P. falciparum stage V gametocytes",
    "% Inhibition": "-33.32%"
  },
  {
    "compound": "COc1ccc2nccc([C@@H](O)CN3CCC(NC(=O)/C=C/c4cccc(C)c4)CC3)c2c1",
    "target": "P. falciparum stage V gametocytes",
    "% Inhibition": "-1.317%"
  },
  {
    "compound": "CC1(C)CCC(C)(C)c2c1ccc(C1CCN(CCCCNC(=O)c3ccc(-c4ccc(C#N)cc4)cc3)CC1)c2OCC(N)=O",
    "target": "P. falciparum stage V gametocytes",
    "% Inhibition": "76.03%"
  }
]

* * *

system: P. falciparum stage V gametocytes; parameters: BacTiter-Glo ATP luminescence viability of purified stage V gametocytes in 384-well plates, per cent inhibition versus DMSO; conditions: 48 h, 5 µM; inhibitor
In all, about 13,000 compounds went through this assay and about 3,200 (25%) showed an effect of 50% or more. This is one part of the list.
Consider the following compounds and their measured % Inhibition readings.

[
  {
    "molecule": "COc1ccc2nc(C)cc(N/N=C/C=C/c3ccccc3)c2c1",
    "% Inhibition, %": 88.89
  },
  {
    "molecule": "CCc1c(CCNCCCCCCNCCc2ccc3c(c2C)OCO3)ccc2c1OCO2",
    "% Inhibition, %": 97.88
  },
  {
    "molecule": "CS(=O)(=O)CCNCc1cc(-c2cc3ncnc(Nc4ccc(OCc5cccc(F)c5)c(Cl)c4)c3s2)cs1",
    "% Inhibition, %": -0.4482
  }
]
